Tested on: Erwinia amylovora PMV6076
Test: MIC, growth inhibition in microtiter plates (TSB)
Format: cell-based
Conditions: Ea, 25°C, 48 h, OD 600 nm, lowest concentration with no growth, given as interval of tested concentrations, three replicates, experiment repeated twice
readout-type: MIC

q: Suppose we examine the compound CCCC(=O)NCCCC[C@H](NC(=O)[C@H](CCCCN)NC(=O)[C@H](CCCCN)NC(=O)[C@H](Cc1ccccc1)NC(=O)[C@H](CC(C)C)NC(=O)[C@H](CCCCN)NC(=O)[C@H](CCCCN)NC(C)=O)C(=O)N[C@@H](CC(C)C)C(=O)N[C@@H](CCCCN)C(=O)N[C@@H](Cc1ccc(O)cc1)C(=O)N[C@@H](CC(C)C)C(N)=O [BP386, Ac-KKLFKKK(COC3H7)LKYL-NH2] ; what MIC value has been reported?
a: 12.5 to 25 µM

q: Item: CC[C@H](C)[C@H](NC(=O)[C@H](CCCCN)NC(=O)[C@H](CCCCN)NC(=O)[C@H](Cc1ccccc1)NC(=O)[C@H](CC(C)C)NC(=O)[C@H](CCCCN)NC(=O)[C@@H](N)CCCCN)C(=O)N[C@@H](CC(C)C)C(=O)N[C@@H](CCCCN)C(=O)N[C@@H](Cc1ccc(O)cc1)C(=O)N[C@@H](CC(C)C)C(N)=O [BP100]
a: 3.1 to 6.2 µM

###

Tested on: defense-related genes in tomato plants
Test: Induction of defense gene expression of tomato plants (RT-qPCR)
Type: in vivo, tomato cv. Rio Grande
Details: treatment at 125 μM; significant overexpression (REST2009)
readout-type: Defense gene expression in tomato plants (genes overexpressed)

smiles-structure: CCCC(=O)NCCCC[C@H](NC(=O)[C@@H](NC(=O)[C@H](CCCCN)NC(=O)[C@H](CCCCN)NC(=O)[C@H](Cc1ccccc1)NC(=O)[C@H](CC(C)C)NC(=O)[C@H](CCCCN)NC(=O)[C@H](CCCCN)NC(C)=O)[C@@H](C)CC)C(=O)N[C@@H](CCCCN)C(=O)N[C@@H](Cc1ccc(O)cc1)C(=O)N[C@@H](CC(C)C)C(N)=O
measured: none

###

Could you please report measured PPO gene expression, fold induction for the items listed next?
Tested on: defense-related genes in tomato plants
Assay: Induction of defense gene expression of tomato plants (RT-qPCR)
Format: in vivo, tomato cv. Rio Grande
Settings: tomato leaves sprayed, 24 h; peptides and flg15 125 μM, JA 2.5 mM, ASM 300 mg/L; ΔΔCt relative to actin; above 2 = overexpression
Answer as a number with no unit attached.

q: Suppose we examine the compound CSC(=O)c1cccc2nnsc12 [ASM, acybenzolar-S-methyl, reference compound] ; what PPO gene expression, fold induction value has been reported?
a: 2.9

q: Item: `CCCCCCCCCCCC(=O)NCCCC[C@H](NC(=O)[C@H](CC(C)C)NC(=O)[C@@H](NC(=O)[C@H](CCCCN)NC(=O)[C@H](CCCCN)NC(=O)[C@H](Cc1ccccc1)NC(=O)[C@H](CC(C)C)NC(=O)[C@H](CCCCN)NC(=O)[C@H](CCCCN)NC(C)=O)[C@@H](C)CC)C(=O)N[C@@H](Cc1ccc(O)cc1)C(=O)N[C@@H](CC(C)C)C(N)=O`
a: 1.4

###

Tested on: defense-related genes in tomato plants
Assay: Induction of defense gene expression of tomato plants (RT-qPCR)
Assay type: in vivo, tomato cv. Rio Grande
Settings: tomato leaves sprayed, 24 h; peptides and flg15 125 μM, JA 2.5 mM, ASM 300 mg/L; ΔΔCt relative to actin; above 2 = overexpression
Could you please report measured Harp gene expression, fold induction for the items listed next?
Answer as a number with no unit attached.

q: Suppose we examine the compound CCCC(=O)NCCCC[C@H](NC(=O)[C@H](CCCCN)NC(=O)[C@H](Cc1ccccc1)NC(=O)[C@H](CC(C)C)NC(=O)[C@H](CCCCN)NC(=O)[C@H](CCCCN)NC(C)=O)C(=O)N[C@H](C(=O)N[C@@H](CC(C)C)C(=O)N[C@@H](CCCCN)C(=O)N[C@@H](Cc1ccc(O)cc1)C(=O)N[C@@H](CC(C)C)C(N)=O)[C@@H](C)CC [BP385, Ac-KKLFKK(COC3H7)ILKYL-NH2] ; what Harp gene expression, fold induction value has been reported?
a: 2.3

q: Item: CCCCCC(=O)NCCCC[C@H](NC(=O)[C@H](Cc1ccc(O)cc1)NC(=O)[C@H](CCCCN)NC(=O)[C@H](CC(C)C)NC(=O)[C@@H](NC(=O)[C@H](CCCCN)NC(=O)[C@H](CCCCN)NC(=O)[C@H](Cc1ccccc1)NC(=O)[C@H](CC(C)C)NC(=O)[C@H](CCCCN)NC(=O)[C@H](CCCCN)NC(C)=O)[C@@H](C)CC)C(N)=O [BP378, Ac-KKLFKKILKYK(COC5H11)-NH2]
a: 1.2

q: Item: CCCC(=O)NCCCC[C@H](NC(=O)[C@@H](NC(=O)[C@H](CCCCN)NC(=O)[C@H](CCCCN)NC(=O)[C@H](Cc1ccccc1)NC(=O)[C@H](CC(C)C)NC(=O)[C@H](CCCCN)NC(=O)[C@H](CCCCN)NC(C)=O)[C@@H](C)CC)C(=O)N[C@@H](CCCCN)C(=O)N[C@@H](Cc1ccc(O)cc1)C(=O)N[C@@H](CC(C)C)C(N)=O [BP387, Ac-KKLFKKIK(COC3H7)KYL-NH2]
a: 1.2

q: Item: CC/C=C\C[C@H]1C(=O)CC[C@@H]1CC(=O)O [JA, jasmonic acid, reference compound]
a: 1.9

###

Tested on: tobacco leaves
Test: Effect of peptide infiltration on tobacco leaves
Assay type: in vivo
Conditions: 250 μM, 100 μL infiltrated into mesophyll, measured after 48 h
readout-type: Size of the lesions in infiltrated tobacco leaves (diameter) (mm)
Please state the figure in mm; there is no need to write the unit.

q: Suppose we examine the molecule CCCC(=O)NCCCC[C@H](NC(=O)[C@H](CCCCN)NC(=O)[C@H](CC(C)C)NC(=O)[C@@H](NC(=O)[C@H](CCCCN)NC(=O)[C@H](CCCCN)NC(=O)[C@H](Cc1ccccc1)NC(=O)[C@H](CC(C)C)NC(=O)[C@H](CCCCN)NC(=O)[C@H](CCCCN)NC(C)=O)[C@@H](C)CC)C(=O)N[C@@H](CC(C)C)C(N)=O [BP389, Ac-KKLFKKILKK(COC3H7)L-NH2] ; what Size of the lesions in infiltrated tobacco leaves (diameter) value has been reported?
a: 9.0

###

Tested on: proteinase K
Construct: purchased Sigma-Aldrich Corporation, Spain
Assay: Susceptibility to protease degradation
Assay type: in vitro ADME
Conditions: proteinase K (isolated protease) in TRIS buffer; 50 μg/mL peptide, 1 μg/mL proteinase K, 100 mM TRIS buffer pH 7.6, 25°C, 60 min; decrease of HPLC peak area (220 nm); read-out: Digestion with proteinase K (percentage of degraded peptide)
Could you please report measured metabolised at 1 h, 50 μg/mL for the items listed next?
Please state the figure in %; there is no need to write the unit.

q: Suppose we examine the compound `CCCCCC(=O)NCCCC[C@H](NC(=O)[C@H](CCCCN)NC(=O)[C@H](CCCCN)NC(C)=O)C(=O)N[C@@H](Cc1ccccc1)C(=O)N[C@@H](CCCCN)C(=O)N[C@@H](CCCCN)C(=O)N[C@H](C(=O)N[C@@H](CC(C)C)C(=O)N[C@@H](CCCCN)C(=O)N[C@@H](Cc1ccc(O)cc1)C(=O)N[C@@H](CC(C)C)C(N)=O)[C@@H](C)CC` ; what metabolised at 1 h, 50 μg/mL value has been reported?
a: 26

q: Item: `CCCCCC(=O)NCCCC[C@H](NC(=O)[C@H](Cc1ccc(O)cc1)NC(=O)[C@H](CCCCN)NC(=O)[C@H](CC(C)C)NC(=O)[C@@H](NC(=O)[C@H](CCCCN)NC(=O)[C@H](CCCCN)NC(=O)[C@H](Cc1ccccc1)NC(=O)[C@H](CC(C)C)NC(=O)[C@H](CCCCN)NC(=O)[C@H](CCCCN)NC(C)=O)[C@@H](C)CC)C(N)=O`
a: 45

q: Item: `CCCC(=O)NCCCC[C@H](NC(=O)[C@H](CCCCN)NC(C)=O)C(=O)N[C@@H](CC(C)C)C(=O)N[C@@H](Cc1ccccc1)C(=O)N[C@@H](CCCCN)C(=O)N[C@@H](CCCCN)C(=O)N[C@H](C(=O)N[C@@H](CC(C)C)C(=O)N[C@@H](CCCCN)C(=O)N[C@@H](Cc1ccc(O)cc1)C(=O)N[C@@H](CC(C)C)C(N)=O)[C@@H](C)CC`
a: 53

###

Tested on: defense-related genes in tomato plants
Assay: Induction of defense gene expression of tomato plants (RT-qPCR)
Assay type: in vivo, tomato cv. Rio Grande
Conditions: tomato leaves sprayed, 24 h; peptides and flg15 125 μM, JA 2.5 mM, ASM 300 mg/L; ΔΔCt relative to actin; above 2 = overexpression
Could you please report measured BCB gene expression, fold induction for the items listed next?
Answer as a number with no unit attached.

q: Suppose we examine the molecule `CCCC(=O)NCCCC[C@H](NC(=O)[C@H](Cc1ccc(O)cc1)NC(=O)[C@H](CCCCN)NC(=O)[C@H](CC(C)C)NC(=O)[C@@H](NC(=O)[C@H](CCCCN)NC(=O)[C@H](CCCCN)NC(=O)[C@H](Cc1ccccc1)NC(=O)[C@H](CC(C)C)NC(=O)[C@H](CCCCN)NC(=O)[C@H](CCCCN)NC(C)=O)[C@@H](C)CC)C(N)=O` ; what BCB gene expression, fold induction value has been reported?
a: 0.6

q: Item: `CCCC(=O)NCCCC[C@H](NC(=O)[C@H](CCCCN)NC(=O)[C@H](Cc1ccccc1)NC(=O)[C@H](CC(C)C)NC(=O)[C@H](CCCCN)NC(=O)[C@H](CCCCN)NC(C)=O)C(=O)N[C@H](C(=O)N[C@@H](CC(C)C)C(=O)N[C@@H](CCCCN)C(=O)N[C@@H](Cc1ccc(O)cc1)C(=O)N[C@@H](CC(C)C)C(N)=O)[C@@H](C)CC`
a: 4.2

q: Item: CC/C=C\C[C@H]1C(=O)CC[C@@H]1CC(=O)O [JA, jasmonic acid, reference compound]
a: 6.6

q: Item: `CCCC(=O)NCCCC[C@H](NC(=O)[C@H](CCCCN)NC(C)=O)C(=O)N[C@@H](CC(C)C)C(=O)N[C@@H](Cc1ccccc1)C(=O)N[C@@H](CCCCN)C(=O)N[C@@H](CCCCN)C(=O)N[C@H](C(=O)N[C@@H](CC(C)C)C(=O)N[C@@H](CCCCN)C(=O)N[C@@H](Cc1ccc(O)cc1)C(=O)N[C@@H](CC(C)C)C(N)=O)[C@@H](C)CC`
a: 1.2
